# target: GluN1/2A receptors (Rattus norvegicus, UniProt P35439+Q00959)
# Sequence (Q00959 20-1464 limits assumed, other chains not shown): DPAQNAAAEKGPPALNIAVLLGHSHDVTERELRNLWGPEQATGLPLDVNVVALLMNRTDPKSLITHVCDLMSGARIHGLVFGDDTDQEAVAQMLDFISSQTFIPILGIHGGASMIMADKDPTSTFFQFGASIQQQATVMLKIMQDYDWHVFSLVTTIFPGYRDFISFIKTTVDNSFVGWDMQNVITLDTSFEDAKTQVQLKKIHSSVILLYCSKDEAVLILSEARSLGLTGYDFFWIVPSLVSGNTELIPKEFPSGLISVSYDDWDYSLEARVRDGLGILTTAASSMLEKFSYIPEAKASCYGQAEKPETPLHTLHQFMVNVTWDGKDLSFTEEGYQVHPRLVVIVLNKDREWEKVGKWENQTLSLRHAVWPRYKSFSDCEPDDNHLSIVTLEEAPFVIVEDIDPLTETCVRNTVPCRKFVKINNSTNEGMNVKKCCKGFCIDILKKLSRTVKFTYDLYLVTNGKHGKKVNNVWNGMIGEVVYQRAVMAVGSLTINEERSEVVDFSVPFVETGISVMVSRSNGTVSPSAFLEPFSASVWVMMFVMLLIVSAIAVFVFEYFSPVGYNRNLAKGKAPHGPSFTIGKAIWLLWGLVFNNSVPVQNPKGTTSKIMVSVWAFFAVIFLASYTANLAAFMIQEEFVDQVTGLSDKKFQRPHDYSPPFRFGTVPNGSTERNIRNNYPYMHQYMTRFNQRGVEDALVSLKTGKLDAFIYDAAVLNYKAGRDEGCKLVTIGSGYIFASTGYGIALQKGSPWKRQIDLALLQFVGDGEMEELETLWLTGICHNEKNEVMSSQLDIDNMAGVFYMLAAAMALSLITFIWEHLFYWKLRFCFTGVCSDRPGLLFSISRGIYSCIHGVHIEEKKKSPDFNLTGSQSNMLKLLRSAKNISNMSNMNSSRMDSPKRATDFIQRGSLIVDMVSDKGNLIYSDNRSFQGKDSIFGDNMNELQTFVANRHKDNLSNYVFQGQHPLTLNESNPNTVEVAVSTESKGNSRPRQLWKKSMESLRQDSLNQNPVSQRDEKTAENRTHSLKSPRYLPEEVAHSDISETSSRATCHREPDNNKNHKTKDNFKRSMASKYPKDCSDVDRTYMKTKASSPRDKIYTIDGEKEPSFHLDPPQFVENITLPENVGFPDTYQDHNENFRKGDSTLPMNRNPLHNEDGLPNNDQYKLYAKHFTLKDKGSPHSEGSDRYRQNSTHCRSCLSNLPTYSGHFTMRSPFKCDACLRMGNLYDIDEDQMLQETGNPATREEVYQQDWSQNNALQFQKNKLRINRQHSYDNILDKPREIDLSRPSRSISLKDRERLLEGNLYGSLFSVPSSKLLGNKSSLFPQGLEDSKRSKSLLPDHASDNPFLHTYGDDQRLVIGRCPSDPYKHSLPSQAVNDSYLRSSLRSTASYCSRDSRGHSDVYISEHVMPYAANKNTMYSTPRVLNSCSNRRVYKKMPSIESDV
# measurementParameters: read-out: IC50 for inhibition of GluN1/2A; activated by 100 μM glutamate plus 3 μM glycine
pIC50: −log10 of the molar value.
Assign pIC50 to each entry below.

Quick batch: pIC50 for everything below.
1. O=C(NNC(=O)c1ccc(CNS(=O)(=O)c2ccc(F)c(Cl)c2)cc1)c1ccccc1 [TCN-201]
2. Cc1ncc(CNC(=O)c2cnc(CNS(=O)(=O)c3ccc(F)c(Cl)c3)cn2)s1 [MPX-004]
3. Cc1ncc(CNC(=O)c2cnc(CNS(=O)(=O)c3ccc(F)c(F)c3)c(C)n2)s1 [MPX-007]

### Response
1: ~6.70; 2: ~6.70; 3: ~6.70
